# System: HCI-016 (organoid from a triple-negative breast cancer xenograft)
# TEST_NAME: CTG-3D luminescence at 96 h relative to day-0 seeding control (ratio to day 0); higher = more growth / less cytotoxicity; PDxO 3D drug screen, 96 h, CTG-3D normalised to day-0 seeding control.
# CONDITION_SUMMARY: 12.5 pM; days in culture: 172
Each entry below carries its reported CTG-3D luminescence at 96 h.
Lab note: record the figure alone, no unit after it.

{"STRUCTURE": "CCN(c1cc(C#CCN2CCOCC2)cc(C(=O)NCc2c(C)cc(C)[nH]c2=O)c1C)[C@H]1CC[C@H](N(C)CCOC)CC1", "REPORTED_MEASUREMENT": 2.13}
{"STRUCTURE": "O=C(O)C1(C(=O)O)CCC1.[NH2-].[NH2-].[Pt+2]", "REPORTED_MEASUREMENT": 2.27}

Given the molecule `CC(=O)O[C@H]1C(=O)[C@@]2(C)[C@H]([C@H](OC(=O)c3ccccc3)[C@]3(O)C[C@H](OC(=O)[C@H](O)[C@@H](NC(=O)c4ccccc4)c4ccccc4)C(C)=C1C3(C)C)[C@]1(OC(C)=O)CO[C@@H]1C[C@@H]2O` , write its reported CTG-3D luminescence at 96 h.
2.25

Please give the documented CTG-3D luminescence at 96 h of `NC1(C(=O)N[C@@H](CCO)c2ccc(Cl)cc2)CCN(c2nc[nH]c3nccc2-3)CC1`
2.38

###

# Test system: HCI-002 (organoid from a triple-negative breast cancer xenograft)
# TEST_NAME: CTG-3D luminescence at 96 h relative to day-0 seeding control (ratio to day 0); higher = more growth / less cytotoxicity; PDxO 3D drug screen, 96 h, CTG-3D normalised to day-0 seeding control.
# CONDITION_SUMMARY: 100 µM; days in culture: 227
MEASURE: CTG-3D luminescence at 96 h

Study these solved cases before continuing.
{"COMPOUND": "NC(=O)c1cccc2cn(-c3ccc([C@@H]4CCCNC4)cc3)nc12 [niraparib]", "CTG-3D luminescence at 96 h": -0.0133}
{"COMPOUND": "C/C=C1\\NC(=O)[C@H]2CSSCC/C=C/[C@H](CC(=O)N[C@H](C(C)C)C(=O)N2)OC(=O)[C@H](C(C)C)NC1=O [romidepsin]", "CTG-3D luminescence at 96 h": -0.0188}
{"COMPOUND": "CC[C@H](NC(=O)[C@H](C)NC)C(=O)N1C[C@@H](O)C[C@H]1Cc1c(-c2[nH]c3cc(F)ccc3c2C[C@@H]2C[C@H](O)CN2C(=O)[C@H](CC)NC(=O)[C@H](C)NC)[nH]c2cc(F)ccc12 [birinapant]", "CTG-3D luminescence at 96 h": -0.1}

Report CTG-3D luminescence at 96 h for CS(=O)(=O)c1ccc(C(=O)Nc2ccc(Cl)c(-c3ccccn3)c2)c(Cl)c1 [vismodegib]
0.447

Given the compound NC1(C(=O)N[C@@H](CCO)c2ccc(Cl)cc2)CCN(c2nc[nH]c3nccc2-3)CC1 [capivasertib] , write its reported CTG-3D luminescence at 96 h.
0.534

Identify measured CTG-3D luminescence at 96 h associated with Cc1cc(Nc2ncc(Cl)c(Nc3ccccc3S(=O)(=O)C(C)C)n2)c(OC(C)C)cc1C1CCNCC1 [ceritinib]
-0.242

###

# Test system: HCI-015 (organoid from a triple-negative breast cancer xenograft)
# TEST_NAME: CTG-3D luminescence at 96 h relative to day-0 seeding control (ratio to day 0); higher = more growth / less cytotoxicity; PDxO 3D drug screen, 96 h, CTG-3D normalised to day-0 seeding control.
# CONDITION_SUMMARY: 10 µM; days in culture: 172
Recorded CTG-3D luminescence at 96 h for the following compounds
Please give only the number in your answer, with no unit.

Provide measured CTG-3D luminescence at 96 h value, entry: `COc1cc2c(Oc3ccc4[nH]c(C)cc4c3F)ncnc2cc1OCCCN1CCCC1`
0.0376

Quick one: give measured CTG-3D luminescence at 96 h for `CCc1c2c(nc3ccc(O)cc13)-c1cc3c(c(=O)n1C2)COC(=O)[C@]3(O)CC`
0.0365

Report CTG-3D luminescence at 96 h for `NC(=O)Nc1cc(-c2cccc(F)c2)sc1C(=O)N[C@H]1CCCNC1`
0.117

Find the measured CTG-3D luminescence at 96 h of `C/C=C1\NC(=O)[C@H]2CSSCC/C=C/[C@H](CC(=O)N[C@H](C(C)C)C(=O)N2)OC(=O)[C@H](C(C)C)NC1=O` and report it.
-0.0523

Assign CTG-3D luminescence at 96 h to the following record: `CC1(C)CCC(c2ccc(Cl)cc2)=C(CN2CCN(c3ccc(C(=O)NS(=O)(=O)c4ccc(N[C@H](CCN5CCOCC5)CSc5ccccc5)c(S(=O)(=O)C(F)(F)F)c4)cc3)CC2)C1`
1.61

State its CTG-3D luminescence at 96 h for this compound: `COc1cccc2c1C(=O)c1c(O)c3c(c(O)c1C2=O)C[C@@](O)(C(=O)CO)C[C@@H]3O[C@H]1C[C@H](N)[C@H](O)[C@H](C)O1`
0.0438

Provide only the value of recorded CTG-3D luminescence at 96 h for `CS(=O)(=O)c1ccc(C(=O)Nc2ccc(Cl)c(-c3ccccn3)c2)c(Cl)c1`
1.25

Fill in CTG-3D luminescence at 96 h for record `CC(C)n1nc(-c2ccc3oc(N)nc3c2)c2c(N)ncnc21`
0.544
